Test Protocol: human liver microsome (HLM) metabolic stability assay
Assay type: in vitro ADME
Stated Conditions: human liver microsomes; % hepatic blood flow calculated from t1/2
Measured Attribute: HLM (% Qh)

P: COc1c(C(=O)O)cnn1-c1cccc(-c2cccc(C)c2OCc2ccc3c(c2C)CCN(S(C)(=O)=O)C3)n1
Q: COc1c(C(=O)O)cnn1-c1cccc(-c2cccc(C)c2OCc2ccc3c(c2C(F)(F)F)CCN(C2CCOCC2)C3)n1
[Q] Given the listed items, does P or Q have the lesser reported HLM (% Qh)? Which one? Tell me its label.
[A] Q
(Q: 27 % Qh, P: 44 % Qh)

a: Cc1cccc(-c2cccc(-n3ncc(C(=O)O)c3OCC(C)C)n2)c1OCc1ccc2c(c1C)CCN(C1CCOCC1)C2
b: COc1c(C(=O)O)cnn1-c1cccc(-c2cccc(C)c2OCc2ccc3c(c2)CCN(CC2CC2(F)F)C3)n1 (stereo not shown)
[Q] Of a and b , whose reported HLM (% Qh) is the larger number? Which one? Tell me its label.
[A] b

Values from patent US8906904B2
